# experimentalSystem: T1, human LAP-TGFB1 Fc fusion (human)
# T1 construct: also called human LAP-TGFβ1-Fc; human LAP-TGFβ-Fc isoform 1
# T1 sequence (chain, as listed by the source limits assumed): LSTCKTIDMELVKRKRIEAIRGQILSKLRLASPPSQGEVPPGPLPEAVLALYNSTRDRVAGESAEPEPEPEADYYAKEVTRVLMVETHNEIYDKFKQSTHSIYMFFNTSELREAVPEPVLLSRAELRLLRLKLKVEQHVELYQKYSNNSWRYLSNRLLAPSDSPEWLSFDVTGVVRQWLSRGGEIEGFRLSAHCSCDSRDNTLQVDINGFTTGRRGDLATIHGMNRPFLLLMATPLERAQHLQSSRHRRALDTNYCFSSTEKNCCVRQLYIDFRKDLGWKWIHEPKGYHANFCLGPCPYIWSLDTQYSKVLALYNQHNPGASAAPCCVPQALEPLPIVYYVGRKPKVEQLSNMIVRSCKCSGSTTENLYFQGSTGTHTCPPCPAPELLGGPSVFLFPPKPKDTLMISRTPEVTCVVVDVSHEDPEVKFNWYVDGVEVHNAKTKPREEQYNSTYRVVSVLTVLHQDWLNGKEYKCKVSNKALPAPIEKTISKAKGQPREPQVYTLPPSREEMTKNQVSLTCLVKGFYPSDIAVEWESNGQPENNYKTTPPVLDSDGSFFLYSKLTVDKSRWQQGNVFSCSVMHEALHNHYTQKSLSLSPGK
# experimentSummary: SPR pH 7.4, antigen-Fc captured, Fab analyte
measuredEndpoint: koff (s⁻¹)

>>> experimentalresult("65BLH (Fab, V domains shown, also called 17BLM Fab) VH: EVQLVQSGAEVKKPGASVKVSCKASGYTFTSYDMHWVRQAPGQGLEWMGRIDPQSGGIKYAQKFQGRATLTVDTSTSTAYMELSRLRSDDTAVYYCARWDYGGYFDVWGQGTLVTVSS VL: DIQMTQSPSSLSASVGDRVTITCRASQDIYNYLNWYQQKPGKAVKLLIYYTSRLETGVPSRFSGSGSGTDYTLTISSLQPEDFATYFCQQGDELPWTFGQGTKLEIK")
0.00107
